For each entry below, report its A1, EC50 as a ratio of that of NECA value.
biological target: adenosine 1 receptor (Homo sapiens, UniProt P30542); construct: expressed in transfected cells; host or cells: CHO cells; assay: Agonist activity, CHO cells transfected with human adenosine receptor and CRE-SPAP reporter; forskolin-enhanced cAMP (A1); format: cell-based; conditions: ratio to NECA; CHO cells, SPAP readout
Sequence (P30542 whole entry): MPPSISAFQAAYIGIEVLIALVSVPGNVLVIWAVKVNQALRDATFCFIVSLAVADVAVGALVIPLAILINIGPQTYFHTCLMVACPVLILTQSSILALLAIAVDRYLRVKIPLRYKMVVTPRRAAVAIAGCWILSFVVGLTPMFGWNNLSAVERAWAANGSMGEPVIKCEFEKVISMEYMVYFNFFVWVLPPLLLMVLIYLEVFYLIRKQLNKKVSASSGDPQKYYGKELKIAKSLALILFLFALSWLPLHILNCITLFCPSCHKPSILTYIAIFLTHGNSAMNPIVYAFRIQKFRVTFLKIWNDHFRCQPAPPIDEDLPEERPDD
Numbers only.

Below: 5 molecules and their reported A1, EC50 as a ratio of that of NECA.
Molecule	Readout	Assay value
CCc1noc([C@H]2O[C@@H](n3cnc4c(NC(CC)CC)nc(NC5CCCC5)nc43)[C@H](O)[C@@H]2O)n1.O=CO [Example 23]	A1, EC50 as a ratio of that of NECA	17.02
CCC(CC)Nc1nc(NC2CCCC2)nc2c1ncn2[C@@H]1O[C@H](c2nc(C)no2)[C@@H](O)[C@H]1O.O=CO [Example 22]	A1, EC50 as a ratio of that of NECA	78.28
CCc1noc([C@H]2O[C@@H](n3cnc4c(NCCc5ccccc5)nc(NCCc5cn(C)cn5)nc43)[C@H](O)[C@@H]2O)n1.O=CO.O=CO [Example 46]	A1, EC50 as a ratio of that of NECA	3560.13
CCc1noc(C2OC(n3cnc4c(NCC(c5ccccc5)c5ccccc5)nc(NC(CO)C(C)C)nc43)C(O)C2O)n1 (centres unmarked) [Example 5]	A1, EC50 as a ratio of that of NECA	1391.2
CCc1noc([C@H]2O[C@@H](n3cnc4c(NCC(c5ccccc5)c5ccccc5)nc(NC5CC6CCC5C6)nc43)[C@H](O)[C@@H]2O)n1.O=CO (some centres unmarked) [Example 41]	A1, EC50 as a ratio of that of NECA	2033.2

For each of the molecules below, note its A1, EC50 as a ratio of that of NECA.
1. CCc1noc([C@H]2O[C@@H](n3cnc4c(NC(CC)CC)nc(N[C@H]5CCC[C@@H]5O)nc43)[C@H](O)[C@@H]2O)n1.O=CO [Example 25]
2. CCc1noc([C@H]2O[C@@H](n3cnc4c(NCC(c5ccccc5)c5ccccc5)nc(NCCc5cn(C)cn5)nc43)[C@H](O)[C@@H]2O)n1.O=C(O)C(F)F.O=C(O)C(F)F [Example 2]

Result:
[515.35, 1823]

* * *

Biological target: adenosine 3 receptor (Homo sapiens)
Construct: expressed in transfected cells; host or cells: CHO cells
Sequence (P0DMS8 1-318): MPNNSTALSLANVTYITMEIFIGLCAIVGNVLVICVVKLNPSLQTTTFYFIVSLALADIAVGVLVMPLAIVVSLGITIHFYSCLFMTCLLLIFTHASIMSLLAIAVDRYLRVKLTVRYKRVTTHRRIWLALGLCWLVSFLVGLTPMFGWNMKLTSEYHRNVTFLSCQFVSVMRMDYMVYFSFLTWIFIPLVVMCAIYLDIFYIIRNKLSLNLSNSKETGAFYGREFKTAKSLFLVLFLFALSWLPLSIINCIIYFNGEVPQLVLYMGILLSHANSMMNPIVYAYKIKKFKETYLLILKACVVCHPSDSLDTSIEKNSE
Experiment: Agonist activity, CHO cells transfected with human adenosine receptor and CRE-SPAP reporter; forskolin-enhanced cAMP (A3)
Assay type: cell-based
Details: ratio to NECA; * data are minimum values since preparation was found, after testing, to contain an inactive impurity
I'd appreciate it if you could supply A3, EC50 as a ratio of that of NECA values for the items below.

Illustrative cases are given below, each with its answer.
>>> df
                                   molecule                              readout  assay_value
0  CCc1noc([C@H]2O[C@@H](n3cnc4c(NC(CC)CC)nc(NCCN5CCCCC5)nc43)[C@H](O)[C@@H]2O)n1.O=CO  A3, EC50 as a ratio of that of NECA         >694
1  CCc1noc(C2OC(n3cnc4c(N)nc(NCCc5ccccn5)nc43)C(O)C2O)n1.O=CO.O=CO (stereo not shown)  A3, EC50 as a ratio of that of NECA         >215

Each molecule below has a recorded value; state its A3, EC50 as a ratio of that of NECA.
1. CCc1noc(C2OC(n3cnc4c(N)nc(NCCc5cn(C)cn5)nc43)C(O)C2O)n1 (stereo not shown)
2. CCc1noc(C2OC(n3cnc4c(N)nc(NC(CO)Cc5ccccc5)nc43)C(O)C2O)n1 (stereo not shown)
3. Cc1noc(C2OC(n3cnc4c(N)nc(NC(CO)Cc5ccccc5)nc43)C(O)C2O)n1 (stereo not shown)
4. CCCc1noc([C@H]2O[C@@H](n3cnc4c(NCC(c5ccccc5)c5ccccc5)nc(NCCc5cn(C)cn5)nc43)[C@H](O)[C@@H]2O)n1.O=CO
5. Cc1noc([C@H]2O[C@@H](n3cnc4c(N)nc(NC5CCCC5)nc43)[C@H](O)[C@@H]2O)n1.O=CO

Result:
>269
>231
>302
>259
>266
